methodNotes: MRT in CF1 mouse at 50 mg/kg, ip by non-compartmental analysis
Assay type: ADME, organism-based
measurementParameters: in vivo
assayReadout: MRT (min)
// return numeric value only (unit: min, not printed)

State, in one line, measured MRT of O=c1[nH]c(CNC(CO)CO)c(I)c(=O)[nH]1
24

----------
methodNotes: AUCM (0 to infinity) in CF1 mouse at 50 mg/kg, ip by non-compartmental analysis
Format: ADME, organism-based
measurementParameters: in vivo
assayReadout: AUMC (µg·h²/mL)
// return numeric value only (unit: µg·h²/mL, not printed)

State, in one line, measured AUMC of O=c1[nH]c(CNC(CO)CO)c(I)c(=O)[nH]1
7.6

----------
methodNotes: AUMCt in CF1 mouse at 50 mg/kg, ip by non-compartmental analysis
Assay type: ADME, organism-based
measurementParameters: in vivo
assayReadout: AUMCt (µg·h²/mL)
// return numeric value only (unit: µg·h²/mL, not printed)

State, in one line, measured AUMCt of O=c1[nH]c(CNC(CO)CO)c(I)c(=O)[nH]1
6.3

----------
methodNotes: Elimination rate constant in CF1 mouse at 50 mg/kg, ip by non-compartmental analysis
Assay type: ADME, organism-based
measurementParameters: in vivo
assayReadout: k el (s⁻¹)
// return numeric value only (unit: s⁻¹, not printed)

State, in one line, measured k el of O=c1[nH]c(CNC(CO)CO)c(I)c(=O)[nH]1
0.000383

----------
methodNotes: Cytotoxicity against human HaCaT cells assessed as cell viability at 25 uM after 72 hrs by neutral red uptake-based assay relative to control
measurementParameters: read-out: Activity
assayReadout: viability at 72 h, 25 µM (%)
// return numeric value only (unit: %, not printed)

State, in one line, measured viability at 72 h, 25 µM of O=c1[nH]c(CNC(CO)CO)c(I)c(=O)[nH]1
100

----------
methodNotes: Cytotoxicity against human HaCaT cells assessed as cell viability at 500 uM after 72 hrs by neutral red uptake-based assay relative to control
measurementParameters: read-out: Activity
assayReadout: viability at 72 h, 500 µM (%)
// return numeric value only (unit: %, not printed)

State, in one line, measured viability at 72 h, 500 µM of O=c1[nH]c(CNC(CO)CO)c(I)c(=O)[nH]1
95

----------
experimentalTarget: Thymidine phosphorylase (Homo sapiens, UniProt P19971)
Sequence (P19971 whole entry): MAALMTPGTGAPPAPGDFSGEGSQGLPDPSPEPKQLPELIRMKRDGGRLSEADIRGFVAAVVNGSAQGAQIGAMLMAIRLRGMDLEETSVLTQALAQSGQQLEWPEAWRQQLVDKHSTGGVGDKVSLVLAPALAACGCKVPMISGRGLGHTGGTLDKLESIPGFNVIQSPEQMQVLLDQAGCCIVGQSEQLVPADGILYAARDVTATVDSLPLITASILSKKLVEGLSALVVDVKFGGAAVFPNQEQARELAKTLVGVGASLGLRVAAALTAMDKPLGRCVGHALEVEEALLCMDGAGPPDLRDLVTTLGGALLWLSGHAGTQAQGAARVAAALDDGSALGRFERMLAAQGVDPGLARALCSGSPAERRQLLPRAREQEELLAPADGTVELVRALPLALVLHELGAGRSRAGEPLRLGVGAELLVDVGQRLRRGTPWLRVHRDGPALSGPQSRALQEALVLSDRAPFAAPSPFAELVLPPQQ
methodNotes: Inhibition of recombinant human thymidine phosphorylase expressed in Escherichia coli Rosetta (DE3) cells using thymidine as substrate after 1 min by UV/visible spectrophotometry
assayReadout: IC50

>  <molecule>
O=c1[nH]c(CNCC(O)CO)c(Br)c(=O)[nH]1 (configuration not stated)

>  <reportedMeasurement>
> 100 µM

$$$$

Let us examine a further case.
Provide measured IC50 on Thymidine phosphorylase (Homo sapiens, UniProt P19971) for CCCN(CCC)Cc1[nH]c(=O)[nH]c(=O)c1I please.
> 100 µM

----------
methodNotes: Cytotoxicity against African green monkey Vero cells assessed as cell viability at 250 uM after 72 hrs by neutral red uptake-based assay relative to control
measurementParameters: chlorocebus sabaeus, read-out: Activity
assayReadout: viability at 72 h, 250 µM (%)
// return numeric value only (unit: %, not printed)

State, in one line, measured viability at 72 h, 250 µM of O=c1[nH]c(CNC(CO)CO)c(I)c(=O)[nH]1
103

----------
methodNotes: Cytotoxicity against African green monkey Vero cells assessed as cell viability at 500 uM after 72 hrs by MTT assay relative to control
Type: cell-based
measurementParameters: chlorocebus sabaeus, read-out: Activity
assayReadout: viability at 72 h, 500 µM (%)
// return numeric value only (unit: %, not printed)

State, in one line, measured viability at 72 h, 500 µM of O=c1[nH]c(CNC(CO)CO)c(I)c(=O)[nH]1
84

----------
methodNotes: Cytotoxicity against human HaCaT cells assessed as cell viability at 100 uM after 72 hrs by MTT assay relative to control
Assay type: cell-based
measurementParameters: read-out: Activity
assayReadout: viability at 72 h, 100 µM (%)
// return numeric value only (unit: %, not printed)

State, in one line, measured viability at 72 h, 100 µM of O=c1[nH]c(CNC(CO)CO)c(I)c(=O)[nH]1
98

----------
methodNotes: Cytotoxicity against human HepG2 cells assessed as cell viability at 25 uM after 72 hrs by MTT assay relative to control
Assay type: cell-based
measurementParameters: read-out: Activity
assayReadout: viability at 72 h, 25 µM (%)
// return numeric value only (unit: %, not printed)

State, in one line, measured viability at 72 h, 25 µM of O=c1[nH]c(CNC(CO)CO)c(I)c(=O)[nH]1
103

----------
methodNotes: Cytotoxicity against human HepG2 cells assessed as cell viability at 500 uM after 72 hrs by MTT assay relative to control
Format: cell-based
measurementParameters: read-out: Activity
assayReadout: viability at 72 h, 500 µM (%)
// return numeric value only (unit: %, not printed)

State, in one line, measured viability at 72 h, 500 µM of O=c1[nH]c(CNC(CO)CO)c(I)c(=O)[nH]1
94

----------
methodNotes: Cytotoxicity against African green monkey Vero cells assessed as cell viability at 25 uM after 72 hrs by MTT assay relative to control
Assay type: cell-based
measurementParameters: chlorocebus sabaeus, read-out: Activity
assayReadout: viability at 72 h, 25 µM (%)
// return numeric value only (unit: %, not printed)

State, in one line, measured viability at 72 h, 25 µM of O=c1[nH]c(CNC(CO)CO)c(I)c(=O)[nH]1
101

----------
methodNotes: Cytotoxicity against human HepG2 cells assessed as cell viability at 1000 uM after 72 hrs by MTT assay relative to control
Format: cell-based
measurementParameters: read-out: Activity
assayReadout: viability at 72 h, 1000 µM
Returns: string containing the number followed by the unit.

State, in one line, measured viability at 72 h, 1000 µM of O=c1[nH]c(CNC(CO)CO)c(I)c(=O)[nH]1
82%

----------
methodNotes: AUCt in CF1 mouse at 50 mg/kg, ip by non-compartmental analysis
Format: ADME, organism-based
measurementParameters: in vivo
assayReadout: AUC(0-t) (ng·h/mL)
// return numeric value only (unit: ng·h/mL, not printed)

State, in one line, measured AUC(0-t) of O=c1[nH]c(CNC(CO)CO)c(I)c(=O)[nH]1
16900

----------
methodNotes: Cytotoxicity against human HaCaT cells assessed as cell viability at 1000 uM after 72 hrs by neutral red uptake-based assay relative to control
measurementParameters: read-out: Activity
assayReadout: viability at 72 h, 1000 µM (%)
// return numeric value only (unit: %, not printed)

State, in one line, measured viability at 72 h, 1000 µM of O=c1[nH]c(CNC(CO)CO)c(I)c(=O)[nH]1
75

----------
methodNotes: Cytotoxicity against human HaCaT cells assessed as cell viability at 50 uM after 72 hrs by neutral red uptake-based assay relative to control
measurementParameters: read-out: Activity
assayReadout: viability at 72 h, 50 µM (%)
// return numeric value only (unit: %, not printed)

State, in one line, measured viability at 72 h, 50 µM of O=c1[nH]c(CNC(CO)CO)c(I)c(=O)[nH]1
110

----------
methodNotes: Cytotoxicity against human U87MG cells assessed as cell viability at 100 uM after 72 hrs by neutral red uptake-based assay relative to control
Parameters: species or system U-87MG ATCC
measurementParameters: read-out: Activity
assayReadout: viability at 72 h, 100 µM (%)
// return numeric value only (unit: %, not printed)

State, in one line, measured viability at 72 h, 100 µM of O=c1[nH]c(CNC(CO)CO)c(I)c(=O)[nH]1
104

----------
methodNotes: Cytotoxicity against human U87MG cells assessed as cell viability at 50 uM after 72 hrs by neutral red uptake-based assay relative to control
Set-up: species or system U-87MG ATCC
measurementParameters: read-out: Activity
assayReadout: viability at 72 h, 50 µM (%)
// return numeric value only (unit: %, not printed)

State, in one line, measured viability at 72 h, 50 µM of O=c1[nH]c(CNC(CO)CO)c(I)c(=O)[nH]1
101
